# test.target: T1, Soluble ASGR-1 (human, UniProt P07306 62-291, biotinylated)
# T1 construct: Soluble recombinant protein; also called recombinant, soluble ASGR-1 biotinylated protein
# T1 sequence: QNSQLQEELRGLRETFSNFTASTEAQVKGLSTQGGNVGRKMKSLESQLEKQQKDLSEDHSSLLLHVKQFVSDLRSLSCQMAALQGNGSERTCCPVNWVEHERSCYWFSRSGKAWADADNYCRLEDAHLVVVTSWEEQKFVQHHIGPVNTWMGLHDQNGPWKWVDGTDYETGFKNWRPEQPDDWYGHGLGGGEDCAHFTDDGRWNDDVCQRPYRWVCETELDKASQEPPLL
# experiment.notes: limited antigen binding assay; biotinylated soluble ASGR-1 coated at 2.5 ng/mL on LumAvidin beads, FACS
attribute.measured: FACS Geomean (FACS Geomean)
Just the number in FACS Geomean, nothing appended.

binder	attribute.measured	meas.value
194C1 (antibody, V domains shown, Tested as hybridoma supernatant at normalized concentration) VH: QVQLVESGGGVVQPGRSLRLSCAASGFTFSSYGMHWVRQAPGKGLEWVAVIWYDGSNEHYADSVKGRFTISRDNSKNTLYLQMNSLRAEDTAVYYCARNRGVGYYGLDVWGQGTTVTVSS VL: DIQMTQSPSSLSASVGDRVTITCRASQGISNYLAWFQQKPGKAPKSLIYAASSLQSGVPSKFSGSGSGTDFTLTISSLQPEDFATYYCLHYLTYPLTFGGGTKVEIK	FACS Geomean	16900

Next item in the queue.
What does the data say about its FACS Geomean? Entry: 191G1 (antibody, V domains shown, Tested as hybridoma supernatant at normalized concentration) VH: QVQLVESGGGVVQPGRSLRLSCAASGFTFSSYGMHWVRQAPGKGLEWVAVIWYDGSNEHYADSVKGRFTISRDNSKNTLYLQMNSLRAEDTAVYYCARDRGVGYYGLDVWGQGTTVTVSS VL: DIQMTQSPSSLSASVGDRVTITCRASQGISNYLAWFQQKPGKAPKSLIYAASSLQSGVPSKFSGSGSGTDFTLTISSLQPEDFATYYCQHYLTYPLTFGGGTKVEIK
9550
